These data points were gathered from ChEMBL document CHEMBL3751768.

test system: Mycobacterium tuberculosis; test: Antitubercular activity against […] after 7 days by alamar blue assay; format: functional; details: 168 h
Entries annotated with measured MIC
endpoint: MIC

>  <smiles record>
OC[C@@H](O)[C@H](O)[C@H](O)CNC12CC3CC(CC(C3)C1)C2

>  <value observed>
> 500 µg/mL

$$$$
>  <smiles record>
C=C[C@@H](O)[C@@H](O)CNCc1ccccc1

>  <value observed>
> 500 µg/mL

$$$$
>  <smiles record>
C=C[C@@H](O)[C@H](O)CNCc1ccccc1

>  <value observed>
> 500 µg/mL

$$$$
>  <smiles record>
C=C[C@@H](O)[C@H](O)CN

>  <value observed>
> 3.5 mM

$$$$
>  <smiles record>
O=C1OC[C@H]2[C@@H](O)[C@H](O)CN12

>  <value observed>
> 3.5 mM

$$$$

====

test system: Mycobacterium tuberculosis; test: Antitubercular activity against […] after 7 days by alamar blue assay; assay type: functional; conditions: 168 h
Entries annotated with measured MIC

>  <smiles record>
C=C[C@H](O)[C@@H](O)CNCc1ccccc1

>  <MIC>
> 500 µg/mL

$$$$
>  <smiles record>
C[C@H](O)[C@H](O)[C@@H](O)[C@@H](O)CNC1CCCCCCC1

>  <MIC>
> 500 µg/mL

$$$$
>  <smiles record>
C[C@H](O)[C@@H](O)[C@@H](O)[C@H](O)CNC1CCCCC1

>  <MIC>
> 500 µg/mL

$$$$
>  <smiles record>
OC[C@H]1NC[C@H](O)[C@H]1O

>  <MIC>
> 3.5 mM

$$$$
>  <smiles record>
C=C[C@@H](O)[C@@H](O)CN

>  <MIC>
> 3.5 mM

$$$$
>  <smiles record>
OC[C@@H](O)[C@H](O)[C@H](O)CNC1CCCCC1

>  <MIC>
> 500 µg/mL

$$$$
>  <smiles record>
O=C1OC[C@H]2[C@@H](O)[C@@H](O)CN12

>  <MIC>
> 3.5 mM

$$$$
